method-summary: in vitro
experimental-setup: african green monkey, veroe6 tmprss2 cells
property-label: CC50 at 48 h

IN: For the compound shown here, O=C(O)C1=CC(=C(c2ccc(O)c(C(=O)O)c2)c2ccc(O)c(C(=O)O)c2)C=CC1=O [Compound 40, Aurintricarboxyclic acid] , give the reported CC50 at 48 h.
OUT: > 50 µM

---

Tested on: SARS-CoV-2 in VeroE6 TMPRSS2 cells
method-summary: microbe, parasite or virus in culture
Format: cell-based
property-label: pEC50
Kindly note that pEC50 refers to -log10 of the concentration in mol/L and answer with the value alone.

IN: For the compound shown here, O=C(O)C1=CC(=C(c2ccc(O)c(C(=O)O)c2)c2ccc(O)c(C(=O)O)c2)C=CC1=O [Compound 40, Aurintricarboxyclic acid] , give the reported pEC50.
OUT: 4.57
